# TARGET DESC: human CD33 L161A (human, UniProt P20138 18-364)
# Sequence (P20138 18-364 L161A limits assumed): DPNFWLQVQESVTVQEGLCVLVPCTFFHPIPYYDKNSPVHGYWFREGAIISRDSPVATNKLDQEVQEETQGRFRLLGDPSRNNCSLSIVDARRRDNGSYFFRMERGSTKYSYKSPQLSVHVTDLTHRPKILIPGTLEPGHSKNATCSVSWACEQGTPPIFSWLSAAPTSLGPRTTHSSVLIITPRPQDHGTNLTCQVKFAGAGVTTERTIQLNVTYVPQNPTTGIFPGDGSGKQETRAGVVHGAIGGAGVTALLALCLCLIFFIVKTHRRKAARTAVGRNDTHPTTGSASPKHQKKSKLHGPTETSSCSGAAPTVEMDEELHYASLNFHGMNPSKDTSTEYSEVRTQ
# PROCEDURE TEXT: flow cytometry on HEK293-T, alanine scan
MEASURED PARAMETER: Mean % WT Binding (% WT binding)
Give your result in % WT binding as a bare value.

Field: example entries. Status: answers known.
Refmab #2 (antibody, V domains shown, The alanine scan used IgG or Fab) VH: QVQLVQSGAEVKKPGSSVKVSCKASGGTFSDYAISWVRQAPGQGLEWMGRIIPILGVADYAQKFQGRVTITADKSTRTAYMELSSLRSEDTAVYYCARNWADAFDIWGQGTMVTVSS VL: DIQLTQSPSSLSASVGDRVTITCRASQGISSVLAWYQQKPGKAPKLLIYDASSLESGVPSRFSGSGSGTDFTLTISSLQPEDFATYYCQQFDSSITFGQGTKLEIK; 114
Refmab #1 (antibody, V domains shown, The alanine scan used IgG or Fab; also called hP67.6) VH: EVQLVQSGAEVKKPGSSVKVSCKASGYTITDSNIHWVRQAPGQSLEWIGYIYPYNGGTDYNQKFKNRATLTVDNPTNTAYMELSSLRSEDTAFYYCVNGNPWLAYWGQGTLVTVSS VL: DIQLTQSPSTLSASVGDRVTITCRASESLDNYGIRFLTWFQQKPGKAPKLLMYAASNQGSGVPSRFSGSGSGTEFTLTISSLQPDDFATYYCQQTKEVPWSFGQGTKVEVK; 87
Refmab #3 (antibody, V domains shown, The alanine scan used IgG or Fab) VH: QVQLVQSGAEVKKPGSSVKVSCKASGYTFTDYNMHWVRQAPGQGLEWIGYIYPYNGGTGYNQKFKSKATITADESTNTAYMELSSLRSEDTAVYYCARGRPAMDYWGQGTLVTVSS VL: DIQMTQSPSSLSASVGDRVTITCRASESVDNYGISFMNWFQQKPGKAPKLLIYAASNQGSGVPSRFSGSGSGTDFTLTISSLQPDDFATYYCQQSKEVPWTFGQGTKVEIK; 116

Data point: Refmab #4 (antibody, V domains shown, The alanine scan used IgG or Fab) VH: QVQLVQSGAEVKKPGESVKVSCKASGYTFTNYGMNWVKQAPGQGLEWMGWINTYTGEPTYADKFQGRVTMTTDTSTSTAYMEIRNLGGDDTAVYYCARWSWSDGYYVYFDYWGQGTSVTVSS VL: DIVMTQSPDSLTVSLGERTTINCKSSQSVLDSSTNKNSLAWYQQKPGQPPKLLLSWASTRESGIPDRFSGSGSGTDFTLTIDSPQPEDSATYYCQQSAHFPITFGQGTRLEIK ; Mean % WT Binding = 114
